B1: SNX8 (parent)
chain: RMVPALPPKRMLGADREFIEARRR

# Variants of: B1
# TEST: protein stability index of a GFP-peptide fusion (GPS, HEK-293T) (PSI 1-6); higher = more stable;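 also: lentivirally expressed fusions sorted by FACS into six bins by GFP to DsRed ratio, PSI derived from sequencing read proportions per bin multiplied by bin number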
# COND: c terminus: a fixed tail appended
Category scheme (protein stability index): one: < 3; two: ≥ 3 and < 4; three: ≥ 4

| MUTATION ANNOTATION | LABEL VALUE |
| --- | --- |
| R23F | one |

Band of A21V ?
two

Band of A21Y ?
two

Band of M11W ?
one

Band of K9D ?
three

Band of K9S ?
three

Band of P7H ?
two

Band of E17T ?
two
